Test: Neuroprotective activity in rat hippocampal neurons assessed as protection against ammonium acetate induced cell death after 5 hrs by propidium iodide staining based fluorimetric analysis
Assay type: functional, Hippocampal neurone
Details: Rattus norvegicus, Hippocampal neurone, 5 h; read-out: EC50
// reported EC50 per item
Output spec: scalar in µM, unitless text.

Documented EC50 of C=C(C)[C@@H]1CCC(C)=C[C@H]1c1c(O)cc(CCCCC)cc1O [CANNABIDIOL] : 4

The recorded EC50 for entry C=C(C)[C@@H]1CCC(C)=C[C@H]1c1c(O)cc(CC2COC2)cc1O equals 20

Quick note, EC50 for C=C(C)[C@@H]1CCC(C)=C[C@H]1c1c(O)cc(CCOCC)cc1O landed at 0.2

Reported EC50 for C=C(C)[C@@H]1CCC(C)=C[C@H]1c1c(O)cc(CCCCC(=O)O)cc1O was 30

For this compound ( C=C(C)[C@@H]1CCC(C)=C[C@H]1c1c(O)cc(CCN2CCOCC2)cc1O ), measured EC50 is 20

* * *

System: MDR1
Experiment: Efflux ratio of permeability from basolateral to apical over apical to basolateral side in MDCK cells expressing MDR1
Conditions: dog
property-name: efflux ratio
Lab note: jot down the number only; don't add units.

>>> df
                         chemical_structure  property_name  numeric_readout
0  C=C(C)[C@@H]1CCC(C)=C[C@H]1c1c(O)cc(CC2CN(C(C)=O)C2)cc1O   efflux ratio             1.02

Could you now look at the following compound, please?
Notebook: C=C(C)[C@@H]1CCC(C)=C[C@H]1c1c(O)cc(CC2CN(C(=O)OCC)C2)cc1O , efflux ratio read as 0.97

* * *

Assay: Neuroprotective activity in rat hippocampal neurons assessed as protection against ammonium acetate induced cell death after 5 hrs by propidium iodide staining based fluorimetric analysis
Type: functional, Hippocampal neurone
Details: Rattus norvegicus, Hippocampal neurone, 5 h; read-out: EC50
property-name: pEC50
Answer as the number alone; pEC50 is minus log10 of concentration in mol/L.

Examples with answers:
In [3]: df
Out[3]:
                         chemical_structure  numeric_readout
0  C=C(C)[C@@H]1CCC(C)=C[C@H]1c1c(O)cc(CC2CN(C(=O)OCC)C2)cc1O             7.30
1  C=C(C)[C@@H]1CCC(C)=C[C@H]1c1c(O)cc(CC2CN(C(C)=O)C2)cc1O             7.40

With those in mind, consider the next compound.
Value of measured pEC50 for the entry C=C(C)[C@@H]1CCC(C)=C[C@H]1c1c(O)cc(CCn2ccnn2)cc1O : 6.00

* * *

Tested on: MDR1
Assay: Apparent permeability from apical to basolateral side in MDCK cells expressing MDR1
Conditions: dog
property-name: Papp A→B

In [3]: df
Out[3]:
                                   molecule  property_name             result
0  C=C(C)[C@@H]1CCC(C)=C[C@H]1c1c(O)cc(CC2CN(C(=O)OCC)C2)cc1O       Papp A→B      11 ×10⁻⁶ cm/s
1  C=C(C)[C@@H]1CCC(C)=C[C@H]1c1c(O)cc(CCCCC)cc1O [CANNABIDIOL]       Papp A→B  < 2.23 ×10⁻⁶ cm/s

Could you now look at the following molecule, please?
Record summary for C=C(C)[C@@H]1CCC(C)=C[C@H]1c1c(O)cc(CC2CN(C(C)=O)C2)cc1O : reported Papp A→B = 35 ×10⁻⁶ cm/s

* * *

Measured solubility kinetic of individual entries
Test: Kinetic aqueous solubility of the compound at pH 7.4
Your answer should be a plain number; it is taken to be in µM.

Solved cases below.
                         chemical_structure  measure_unit  numeric_readout
0  C=C(C)[C@@H]1CCC(C)=C[C@H]1c1c(O)cc(CCCCC)cc1O            µM               17
1  C=C(C)[C@@H]1CCC(C)=C[C@H]1c1c(O)cc(CC2CN(C(=O)OCC)C2)cc1O            µM             16.6

Okay, now this molecule:
Query C=C(C)[C@@H]1CCC(C)=C[C@H]1c1c(O)cc(CC2CN(C(C)=O)C2)cc1O yields solubility kinetic of 87

* * *

Test: Apparent permeability from apical to basolateral side in human Caco cells
Conditions: Caco-2
property-name: Papp A→B (×10⁻⁶ cm/s)
Kindly answer with a numeric value in ×10⁻⁶ cm/s, unit omitted.

>>> df
                         chemical_structure  numeric_readout
0  C=C(C)[C@@H]1CCC(C)=C[C@H]1c1c(O)cc(CC2CN(C(=O)OCC)C2)cc1O               22

The recorded Papp A→B for entry C=C(C)[C@@H]1CCC(C)=C[C@H]1c1c(O)cc(CC2CN(C(C)=O)C2)cc1O equals 49

* * *

The entries below are paired with their reported log10(EC50).
Assay: Neuroprotective activity in rat hippocampal neurons assessed as protection against ammonium acetate induced cell death by measuring neuronal viability after 5 hrs by carboxyfluorescein diacetate dye based fluorimetric analysis
Type: functional, Hippocampal neurone
Details: Rattus norvegicus, Hippocampal neurone, 5 h; read-out: EC50
Record value = log10 of EC50 given in µM.

                         chemical_structure  property_name  numeric_readout
0  C=C(C)[C@@H]1CCC(C)=C[C@H]1c1c(O)cc(CC2CN(C(C)=O)C2)cc1O    log10(EC50)            -1.40

Here is the next item to consider.
Record C=C(C)[C@@H]1CCC(C)=C[C@H]1c1c(O)cc(CC2CN(C(=O)OCC)C2)cc1O , field log10(EC50): -0.96

* * *

# reported EC50; entries follow
Assay: Neuroprotective activity in rat hippocampal neurons assessed as protection against ammonium acetate induced cell death after 5 hrs by propidium iodide staining based fluorimetric analysis
Assay type: functional, Hippocampal neurone
Conditions: Rattus norvegicus, Hippocampal neurone, 5 h; read-out: EC50

Use these answered entries as a reference point.
                         chemical_structure    result
0  C=C(C)[C@@H]1CCC(C)=C[C@H]1c1c(O)cc(CC(=O)N2CCOCC2)cc1O  > 100 µM
1  C=C(C)[C@@H]1CCC(C)=C[C@H]1c1c(O)cc(CCn2nccn2)cc1O  > 100 µM

Consider the record given below.
For record C=C(C)[C@@H]1CCC(C)=C[C@H]1c1c(O)cc(O)cc1CC1CN(C(C)=O)C1 the listed EC50 is > 100 µM

* * *

Recorded EC50 by entry
Experiment: Neuroprotective activity in rat hippocampal neurons assessed as protection against ammonium acetate induced cell death by measuring neuronal viability after 5 hrs by carboxyfluorescein diacetate dye based fluorimetric analysis
Assay type: functional, Hippocampal neurone
Conditions: Rattus norvegicus, Hippocampal neurone, 5 h; read-out: EC50
The response must be a number in µM with no trailing unit.

Consider the worked cases shown below.
In [3]: df
Out[3]:
                                   compound  property_name  measure_unit  numeric_readout
0  C=C(C)[C@@H]1CCC(C)=C[C@H]1c1c(O)cc(CC2COC2)cc1O           EC50            µM               35
1  C=C(C)[C@@H]1CCC(C)=C[C@H]1c1c(O)cc(CCCCC)cc1O [CANNABIDIOL]           EC50            µM                2
2  C=C(C)[C@@H]1CCC(C)=C[C@H]1c1c(O)cc(CCCCC(=O)O)cc1O           EC50            µM                4
3  C=C(C)[C@@H]1CCC(C)=C[C@H]1c1c(O)cc(CCn2ccnn2)cc1O           EC50            µM                3

Could you now consider this next compound?
The recorded EC50 for entry C=C(C)[C@@H]1CCC(C)=C[C@H]1c1c(O)cc(CCOCC)cc1O equals 36
